# Target: Oxytocin receptor (Homo sapiens, UniProt P30559)
# Sequence (P30559 whole entry): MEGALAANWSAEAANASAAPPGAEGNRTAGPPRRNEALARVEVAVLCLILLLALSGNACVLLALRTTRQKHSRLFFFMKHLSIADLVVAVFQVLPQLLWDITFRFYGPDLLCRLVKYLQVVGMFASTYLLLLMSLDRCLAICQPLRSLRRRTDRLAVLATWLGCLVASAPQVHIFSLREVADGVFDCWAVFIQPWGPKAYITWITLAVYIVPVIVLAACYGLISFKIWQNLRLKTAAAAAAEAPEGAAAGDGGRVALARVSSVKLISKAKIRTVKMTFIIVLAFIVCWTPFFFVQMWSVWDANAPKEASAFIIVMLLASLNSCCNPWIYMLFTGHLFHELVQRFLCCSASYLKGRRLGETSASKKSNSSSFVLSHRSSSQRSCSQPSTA
# Experiment Description: Agonist activity at human OTR expressed in CHO cells assessed as calcium mobilization measured after 30 mins by Fluo-4-AM dye based FLIPR assay
pEC50: −log10 of the molar value. Numbered stars: 1 amine (or outer) side, 2 acyl side, 3 side chain; on linkers, the order of the positions; unused ones are H or OH. Bridge positions count the residues as written; N and C are the ends. Square brackets hold non-standard residues; d marks the D form. Peptide text beside a SMILES is read from it. Hyp = O=C(O)[C@@H]1C[C@@H](O)CN1; tBuAla = CC(C)(C)C[C@H](N)C(=O)O; Suc = O=C(CCC(=O)[*:2])[*:1]; X1 = O=C(CCC[*:2])[*:1]; Dap = NC[C@H](N)C(=O)O; Mpa = O=C(O)CCS; Sar = CNCC(=O)O
Readout: pEC50

[
  {
    "Compound": "CC[C@H](C)[C@@H]1NC(=O)[C@H](Cc2ccc(O)cc2)NC(=O)CCSSC[C@@H](C(=O)N2CCC[C@H]2C(=O)N[C@@H](CCC(=O)O)C(=O)NCC(N)=O)NC(=O)[C@H](CC(N)=O)NC(=O)[C@H](CCC(N)=O)NC1=O ([Mpa]YIQNCPEG-NH2; disulfide 1-6)",
    "Quantitative Result": 9.60
  },
  {
    "Compound": "CC(C)C[C@H](NC(=O)[C@@H]1CCCN1C(=O)[C@@H]1CSSCCC(=O)N[C@@H](Cc2ccc(O)cc2)C(=O)N[C@@H](C)C(=O)N[C@@H](CCC(N)=O)C(=O)N[C@@H](CC(N)=O)C(=O)N1)C(=O)NCC(N)=O ([Mpa]YAQNCPLG-NH2; disulfide 1-6)",
    "Quantitative Result": 8.36
  },
  {
    "Compound": "CC[C@H](C)[C@@H]1NC(=O)[C@H](Cc2ccc(O)cc2)NC(=O)CCC(=O)NC[C@@H](C(=O)N2CCC[C@H]2C(=O)N[C@@H](CC(C)(C)C)C(=O)NCC(N)=O)NC(=O)[C@H](CC(N)=O)NC(=O)[C@H](CCC(N)=O)NC1=O (YIQN[Dap]P[tBuAla]G-NH2; linker N-5 via Suc)",
    "Quantitative Result": 9.59
  },
  {
    "Compound": "CC[C@H](C)[C@@H]1NC(=O)[C@H](Cc2ccc(O)cc2)NC(=O)CCSSC[C@@H](C(=O)N2CCC[C@H]2C(=O)N[C@@H](Cc2ccccc2)C(=O)NCC(N)=O)NC(=O)[C@H](CC(N)=O)NC(=O)[C@H](CCC(N)=O)NC1=O ([Mpa]YIQNCPFG-NH2; disulfide 1-6)",
    "Quantitative Result": 10.27
  },
  {
    "Compound": "CC[C@H](C)[C@@H]1NC(=O)[C@H](Cc2ccc(O)cc2)NC(=O)CCSSC[C@@H](C(=O)N2CCC[C@H]2C(=O)N[C@@H](CC(C)C)C(=O)NNC(N)=O)NC(=O)[C@H](CC(N)=O)NC(=O)[C@H](CCC(N)=O)NC1=O",
    "Quantitative Result": 11.12
  },
  {
    "Compound": "CCCCCC[C@H](NC(=O)[C@@H]1CCCN1C(=O)[C@@H]1CSSCCC(=O)N[C@@H](Cc2ccc(O)cc2)C(=O)N[C@@H]([C@@H](C)CC)C(=O)N[C@@H](CCC(N)=O)C(=O)N[C@@H](CC(N)=O)C(=O)N1)C(=O)NCC(N)=O",
    "Quantitative Result": 10.57
  },
  {
    "Compound": "CC(C)C[C@@H]1NC(=O)[C@H](Cc2ccc(O)cc2)NC(=O)CCSSC[C@@H](C(=O)N2CCC[C@H]2C(=O)N[C@@H](CC(C)C)C(=O)NCC(N)=O)NC(=O)[C@H](CC(N)=O)NC(=O)[C@H](CCC(N)=O)NC1=O ([Mpa]YLQNCPLG-NH2; disulfide 1-6)",
    "Quantitative Result": 9.72
  },
  {
    "Compound": "CC[C@H](C)[C@@H]1NC(=O)[C@H](Cc2ccc(O)cc2)NC(=O)CCSSC[C@@H](C(=O)N2CCC[C@H]2C(=O)N[C@@H](CO)C(=O)NCC(N)=O)NC(=O)[C@H](CC(N)=O)NC(=O)[C@H](CCC(N)=O)NC1=O ([Mpa]YIQNCPSG-NH2; disulfide 1-6)",
    "Quantitative Result": 10.25
  },
  {
    "Compound": "CC[C@H](C)[C@@H]1NC(=O)[C@H](Cc2ccc(O)cc2)NC(=O)CCSSC[C@@H](C(=O)N2CCC[C@H]2C(=O)N[C@@H](CC(C)C)C(=O)N[C@@H](C)C(N)=O)NC(=O)[C@H](CC(N)=O)NC(=O)[C@H](CCC(N)=O)NC1=O ([Mpa]YIQNCPLA-NH2; disulfide 1-6)",
    "Quantitative Result": 8.85
  },
  {
    "Compound": "CC[C@H](C)[C@@H]1NC(=O)[C@H](Cc2ccc(O)cc2)NC(=O)CCSSC[C@@H](C(=O)N2CCC[C@H]2C(=O)N[C@@H](CC(C)C)C(=O)N[C@@H](Cc2ccccc2)C(N)=O)NC(=O)[C@H](CC(N)=O)NC(=O)[C@H](CCC(N)=O)NC1=O ([Mpa]YIQNCPLF-NH2; disulfide 1-6)",
    "Quantitative Result": 8.80
  },
  {
    "Compound": "CC[C@H](C)[C@@H]1NC(=O)[C@H](Cc2ccc(O)cc2)NC(=O)CCSSC[C@@H](C(=O)N(C)CC(=O)N[C@@H](CC(C)C)C(=O)NCC(N)=O)NC(=O)[C@H](CC(N)=O)NC(=O)[C@H](CCC(N)=O)NC1=O ([Mpa]YIQNC[Sar]LG-NH2; disulfide 1-6)",
    "Quantitative Result": 11.16
  },
  {
    "Compound": "CC[C@H](C)[C@@H]1NC(=O)[C@H](Cc2ccc(O)cc2)NC(=O)CCSSC[C@@H](C(=O)N2CCC[C@H]2C(=O)N[C@@H](CC(C)C)C(=O)NCC(N)=O)NC(=O)[C@H](CC(N)=O)NC(=O)[C@H](Cc2ccccc2)NC1=O ([Mpa]YIFNCPLG-NH2; disulfide 1-6)",
    "Quantitative Result": 7.66
  },
  {
    "Compound": "CC[C@H](C)[C@@H]1NC(=O)[C@H](Cc2ccc(O)cc2)NC(=O)CCSSC[C@@H](C(=O)N2CCC[C@H]2C(=O)N[C@@H](CCCNC(=N)N)C(=O)NCC(N)=O)NC(=O)[C@H](CC(N)=O)NC(=O)[C@H](CCC(N)=O)NC1=O ([Mpa]YIQNCPRG-NH2; disulfide 1-6)",
    "Quantitative Result": 10.52
  },
  {
    "Compound": "CC[C@H](C)[C@@H]1NC(=O)[C@H](Cc2ccc(O)cc2)NC(=O)CCCSC[C@@H](C(=O)N2C[C@H](O)C[C@H]2C(=O)N[C@@H](CC(C)C)C(=O)NCC(N)=O)NC(=O)[C@H](CC(N)=O)NC(=O)[C@H](CCC(N)=O)NC1=O (YIQNC[Hyp]LG-NH2; linker N-5 via X1)",
    "Quantitative Result": 11.26
  }
]
